tested on: KG-1 cell line (FGFR 1-fusion); assay: Cancer cell line cell viability assay (Cell Titer-Glo), 72 hr; type: cell-based; details: Homo sapiens, KG-1, KG-1 cell line (FGFR1-fusion)
pIC50: −log10 of the molar value.
experimental_endpoint: pIC50

>>> recorded_result("C[C@@H](Oc1ccc2[nH]nc(-c3ccc(N4CC(N)(Cc5ccnn5C)C4)nn3)c2c1)c1c(Cl)cncc1Cl")
"6.70 to 7.30"

Sample CCCC1(N)CN(c2ncc(-c3n[nH]c4cc(OC)c(O[C@H](C)c5c(Cl)cncc5Cl)cc34)cc2C#N)C1 — what was its pIC50?
6.70 to 7.30

Sample COc1cc2[nH]nc(-c3cnc(N4CC(C)(NCC5CC5)C4)nc3)c2cc1O[C@H](C)c1c(Cl)cncc1Cl — what was its pIC50?
7.30 to 10.00

Sample COc1cc2[nH]nc(-c3cnc(N4CC(C)(N)C4)c(F)c3)c2cc1O[C@H](C)c1c(Cl)cncc1Cl — what was its pIC50?
6.70 to 7.30

====

tested on: KG-1 cell line (FGFR 1-fusion); experiment: Cancer cell line cell viability assay (Cell Titer-Glo), 72 hr; assay type: cell-based; conditions: Homo sapiens, KG-1, KG-1 cell line (FGFR1-fusion)
Structures can show the parent of a compound that is named as a salt.
experimental_endpoint: IC50

>>> recorded_result("C[C@H]1CN(C2(C)CN(c3ncc(-c4n[nH]c5ccc(O[C@H](C)c6c(Cl)cncc6Cl)cc45)cc3F)C2)CCO1")
"0.05 to 0.2 µM"

Sample CC(C)CNC1(C)CN(c2ncc(-c3n[nH]c4ccc(O[C@H](C)c5c(Cl)cncc5Cl)cc34)cc2F)C1 — what was its IC50?
0.05 to 0.2 µM

Sample COc1cc2[nH]nc(-c3cnc(N4CC(C)(CNC(C)C)C4)c(C#N)c3)c2cc1O[C@H](C)c1c(Cl)cncc1Cl — what was its IC50?
0.0001 to 0.05 µM

Sample COc1cc2[nH]nc(-c3cnc(N4CC(N)(C(C)C)C4)c(C#N)c3)c2cc1O[C@H](C)c1c(Cl)cncc1Cl — what was its IC50?
0.05 to 0.2 µM

Sample CC(C)=CCC1(N)CN(c2ncc(-c3n[nH]c4ccc(O[C@H](C)c5c(Cl)cncc5Cl)cc34)cc2F)C1 — what was its IC50?
0.2 to 1 µM

Sample CCNC1(C)CN(c2ncc(-c3n[nH]c4cc(OC)c(O[C@H](C)c5c(Cl)cncc5Cl)cc34)cc2C#N)C1 [Example 341, HCl] — what was its IC50?
0.0001 to 0.05 µM

Sample CC(C)OCCNC1(C)CN(c2ncc(-c3n[nH]c4ccc(O[C@H](C)c5c(Cl)cncc5Cl)cc34)cc2C#N)C1 — what was its IC50?
0.2 to 1 µM

Sample C[C@@H](Oc1cc2c(-c3cnc(N4CC(C)(N5CCCC5)C4)c(C#N)c3)n[nH]c2cc1F)c1c(Cl)cncc1Cl — what was its IC50?
0.2 to 1 µM

Sample C[C@@H](Oc1cc2c(-c3cnc(N4CC5(CC5)C4)nc3)n[nH]c2cc1F)c1c(Cl)cncc1Cl — what was its IC50?
> 1 µM

Sample COc1cc2[nH]nc(-c3cnc(N4CC(C)(NC(=O)CN(C)C)C4)c(C#N)c3)c2cc1O[C@H](C)c1c(Cl)cncc1Cl — what was its IC50?
0.05 to 0.2 µM

Sample C[C@@H](Oc1ccc2[nH]nc(-c3cnc(N4CC(N)(Cc5cnn(C)c5)C4)c(F)c3)c2c1)c1c(Cl)cncc1Cl — what was its IC50?
0.05 to 0.2 µM

Sample CC[C@H](C)NC1(C)CN(c2ccc(-c3n[nH]c4ccc(O[C@H](C)c5c(Cl)cncc5Cl)cc34)cn2)C1 — what was its IC50?
0.05 to 0.2 µM

Sample C[C@@H](O)CNC1(C)CN(c2ncc(-c3n[nH]c4ccc(O[C@H](C)c5c(Cl)cncc5Cl)cc34)cc2C#N)C1 — what was its IC50?
0.2 to 1 µM

Sample CCC1(N)CN(c2ccc(-c3n[nH]c4ccc(O[C@H](C)c5c(Cl)cncc5Cl)cc34)nn2)C1 — what was its IC50?
0.05 to 0.2 µM
